Values compiled from ChEMBL document CHEMBL2040733.

Data export: pIC50 values recorded with Kinesin-like protein KIF11 (Homo sapiens, UniProt P52732).
Sequence (P52732 whole entry): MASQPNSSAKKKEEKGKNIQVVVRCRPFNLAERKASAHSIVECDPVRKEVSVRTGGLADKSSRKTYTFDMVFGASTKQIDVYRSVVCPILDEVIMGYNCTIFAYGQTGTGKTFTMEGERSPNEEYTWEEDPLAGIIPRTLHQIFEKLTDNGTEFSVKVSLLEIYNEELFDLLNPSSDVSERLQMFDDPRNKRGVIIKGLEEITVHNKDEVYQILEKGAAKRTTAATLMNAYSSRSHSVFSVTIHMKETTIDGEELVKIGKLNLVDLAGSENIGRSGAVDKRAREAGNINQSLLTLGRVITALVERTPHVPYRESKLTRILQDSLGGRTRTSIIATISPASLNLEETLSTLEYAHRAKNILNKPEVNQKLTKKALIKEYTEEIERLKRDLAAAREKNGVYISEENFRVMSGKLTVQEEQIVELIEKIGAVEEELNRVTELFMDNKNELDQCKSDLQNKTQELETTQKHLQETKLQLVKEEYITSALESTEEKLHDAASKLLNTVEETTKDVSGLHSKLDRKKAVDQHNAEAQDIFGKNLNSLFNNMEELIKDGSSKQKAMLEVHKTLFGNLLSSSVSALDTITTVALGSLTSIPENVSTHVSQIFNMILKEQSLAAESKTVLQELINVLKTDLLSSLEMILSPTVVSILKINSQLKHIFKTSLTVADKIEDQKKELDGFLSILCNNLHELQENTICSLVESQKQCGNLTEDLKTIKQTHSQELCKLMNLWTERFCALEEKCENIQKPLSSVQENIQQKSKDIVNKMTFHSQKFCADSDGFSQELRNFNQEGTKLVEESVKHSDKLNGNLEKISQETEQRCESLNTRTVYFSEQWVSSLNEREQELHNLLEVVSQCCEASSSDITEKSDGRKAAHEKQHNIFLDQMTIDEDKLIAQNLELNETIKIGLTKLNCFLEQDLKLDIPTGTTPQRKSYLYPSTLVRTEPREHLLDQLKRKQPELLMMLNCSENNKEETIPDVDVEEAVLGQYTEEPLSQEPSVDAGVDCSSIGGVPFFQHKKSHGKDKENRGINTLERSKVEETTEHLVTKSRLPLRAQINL
Remember the convention: pIC50 equals -log10 of concentration in molar.

Molecule	Meas Value
NCCSC(Cc1ccccc1)(c1ccccc1)c1ccc(O)cc1 (racemic)	6.18

From here, focus on the item given below.
For the record N[C@@H](CSC(Cc1ccccc1)(c1ccc(Cl)cc1)c1cccc(Cl)c1)C(=O)O (mixture of isomers) , what value of pIC50 is listed for Kinesin-like protein KIF11 (Homo sapiens, UniProt P52732)?
6.25

----------
Reported GI50 values follow for various molecules
Assay: Cytotoxicity against human KBV1 cells expressing p-glycoprotein
Assay type: functional
Settings: KB-V1
I only need the number, in µM, no unit after it.

Molecule	GI50 [µM]
Cc1ccc(C(Cc2ccccc2)(SCCN)c2ccccc2)cc1 (racemic)	1.72

From here, focus on the item given below.
Entry under review: NCCSC(Cc1ccccc1)(c1ccccc1)c1ccc(Cl)cc1 (racemic) . Reported GI50?
5.78

----------
Experiment: Solubility of the compound in phosphate buffered saline at pH 7.4 after 2 hrs by turbidimetric analysis
Format: physicochemical
Endpoint Name: solubility kinetic at 2 h (µM)
I only need the number, in µM, no unit after it.

Compound	Units	solubility kinetic at 2 h
Cc1ccc(C(Cc2ccccc2)(SC[C@H](N)C(=O)O)c2ccccc2)cc1 (mixture of isomers)	µM	11.5

Entry under review: Cc1ccc(C(Cc2ccccc2)(SCCN)c2ccccc2)cc1 (racemic) . Reported solubility kinetic at 2 h?
6.5

----------
System: BXPC-3
Assay: Cytotoxicity against human BxPC3 cells after 72 hrs by Alamar blue assay
Assay type: functional
Settings: BXPC-3, 72 h
Reported GI50 values follow for various compounds
I only need the number, in µM, no unit after it.

Compound	Target Under Test	Endpoint Name	Meas Value
NCCSC(Cc1ccccc1)(c1ccccc1)c1ccc(Cl)cc1 (racemic)	BXPC-3	GI50	4.26
N[C@@H](CSC(Cc1ccccc1)(c1ccccc1)c1ccccc1)C(=O)O	BXPC-3	GI50	14.3
Cc1ccc(C(Cc2ccccc2)(SCCN)c2ccccc2)cc1 (racemic)	BXPC-3	GI50	4.07
Cc1ccc(C(Cc2ccccc2)(SC[C@H](N)C(=O)O)c2ccccc2)cc1 (mixture of isomers)	BXPC-3	GI50	4.33

Entry under review: N[C@@H](CSC(Cc1ccccc1)(c1ccccc1)c1ccc(Cl)cc1)C(=O)O (mixture of isomers) . Reported GI50?
3.79

----------
Test system: HCT-116
Test: Cytotoxicity against human HCT116 cells after 72 hrs by Alamar blue assay
Type: functional
Conditions: HCT-116, 72 h
Reported GI50 values follow for various compounds
I only need the number, in nM, no unit after it.

Below are worked cases with known answers.
Compound	Units	GI50
N[C@@H](CSC(Cc1ccccc1)(c1ccccc1)c1ccccc1)C(=O)O	nM	2370
Cc1ccc(C(Cc2ccccc2)(SCCN)c2ccccc2)cc1 (racemic)	nM	1170
N[C@@H](CSC(Cc1ccccc1)(c1ccccc1)c1ccc(Cl)cc1)C(=O)O (mixture of isomers)	nM	2080
NCCSC(Cc1ccccc1)(c1ccccc1)c1ccc(Cl)cc1 (racemic)	nM	2050

Entry under review: Cc1ccc(C(Cc2ccccc2)(SC[C@H](N)C(=O)O)c2ccccc2)cc1 (mixture of isomers) . Reported GI50?
1490

----------
Biological target: Kinesin-like protein KIF11 (Homo sapiens, UniProt P52732)
Endpoint Name: IC50 (nM)
I only need the number, in nM, no unit after it.

Below are worked cases with known answers.
Compound	Units	IC50
Cc1ccc(C(Cc2ccccc2)(SC[C@H](N)C(=O)O)c2ccccc2)cc1 (mixture of isomers)	nM	168
N[C@@H](CSC(Cc1ccccc1)(c1ccccc1)c1cccc(O)c1)C(=O)O (mixture of isomers)	nM	67.6

Entry under review: NCCSC(Cc1ccccc1)(c1ccccc1)c1ccc(Cl)cc1 (racemic) . Reported IC50?
141

Entry under review: N[C@@H](CSC(Cc1ccccc1)(c1ccccc1)c1ccc(F)cc1)C(=O)O (mixture of isomers) . Reported IC50?
151

Entry under review: N[C@@H](CSC(CCc1ccccc1)(c1ccccc1)c1ccccc1)C(=O)O . Reported IC50?
15800
